# Test system: Plasmodium falciparum
# experimentalDetails: GSK_TCMDC: Inhibition of Plasmodium falciparum Dd2 in whole red blood cells, using parasite LDH activity as an index of growth. Test compounds present at 2uM
# Type: functional

{"compound": "CCCCCCCN1CCC(CC(=O)Nc2ccnc3ccc(OC)cc23)C(CC)C1 (stereo not given)", "Inhibition / %": 75}
{"compound": "Cc1cc(N(C)C)nc(Nc2ccc(NC(=O)c3cccc(F)c3)cc2)n1", "Inhibition / %": 62}
{"compound": "Cc1cccc2nc(-c3cccc(-c4ccc(NC(=O)c5cccc(C(N)=O)c5)cc4)c3)[nH]c12", "Inhibition / %": 61}
{"compound": "Cc1ccccc1N1CCN(c2ccc(C(=O)Nc3ccccc3)cc2)CC1", "Inhibition / %": 91}
{"compound": "CN(C)CCCc1cc2c(cc1Cl)CCN2C(=O)Nc1ccc(-c2ccncc2)c2ccccc12", "Inhibition / %": 0}

====

Catalogue of Inhibition readings, one per entry.
# System: Plasmodium falciparum
# experimentalDetails: GSK_TCMDC: Inhibition of Plasmodium falciparum Dd2 in whole red blood cells, using parasite LDH activity as an index of growth. Test compounds present at 2uM
# Assay type: functional

{"molecule": "N#Cc1cccc(Nc2nccc(NCC(O)c3ccc(C(F)(F)F)cc3)n2)c1 (centres undefined)", "Inhibition": "98%"}
{"molecule": "CCCCCCNC(=O)C1Cc2c([nH]c3ccccc23)C2(CCN(CCc3ccccc3)CC2)N1 (centres undefined)", "Inhibition": "34%"}
{"molecule": "Cc1ccnc2nc(C(=O)Nc3cc(C(F)(F)F)ccc3N3CCCCC3)nn12", "Inhibition": "94%"}
{"molecule": "Nc1ncnc2nc(-c3ccc(F)cc3)cc(-c3ccc(NC(=O)c4ccccc4)cc3)c12", "Inhibition": "97%"}
{"molecule": "O=C(NC(=S)Nc1cc(C(F)(F)F)cc(C(F)(F)F)c1)c1ccc(Cl)cc1", "Inhibition": "99%"}
{"molecule": "CCc1ccc(CN2CCC(C(=O)Nc3ccc(-c4nc5ccccc5[nH]4)cc3)CC2)o1", "Inhibition": "94%"}
{"molecule": "CC(Cc1ccc(NC(=O)c2ccc(NCCc3ccccc3)cc2)cc1)NCCc1cccc(Cl)c1.Cl (centres undefined)", "Inhibition": "1%"}
{"molecule": "O=C(NCCc1ccccc1)N(Cc1cccc(-c2ccc(CNC3CCCC3)cc2)c1)C1CCN(Cc2ccccc2)CC1.O=C(O)C(F)(F)F", "Inhibition": "84%"}
{"molecule": "Cc1cc(C(=O)Nc2ccc(OCc3ccccc3)cc2)on1", "Inhibition": "89%"}

====

# System: Plasmodium falciparum
# experimentalDetails: GSK_TCMDC: Inhibition of Plasmodium falciparum 3D7 in whole red blood cells, using parasite LDH activity as an index of growth. Test compounds present at 2uM
# Format: functional

{"compound": "Cc1cc(N(C)C)nc(Nc2ccc(NC(=O)Nc3ccccc3)cc2)n1", "Inhibition [%]": 100}
{"compound": "CCCCOc1ccc(CNCCCCCCNCc2ccc(OCCCC)c3ccccc23)c2ccccc12.CS(=O)(=O)O", "Inhibition [%]": 81}
{"compound": "Cc1nnc2c(N(C(=O)NCCc3ccccc3)C(=O)NCCc3ccccc3)cc3cc(Cl)ccc3n12", "Inhibition [%]": 91}
{"compound": "CCOC(=O)NCC(=O)Nc1cccc(-c2cccc(-c3nc4cc(C(F)(F)F)ccc4[nH]3)c2)c1", "Inhibition [%]": 91}
{"compound": "Fc1ccc(Nc2ccnc3cc(-c4ccc(CNCCN5CCOCC5)o4)ccc23)c(Cl)c1", "Inhibition [%]": 100}
{"compound": "Cc1cnc(C(=O)Nc2ccc3c(c2)CCCN(Cc2c[nH]c4cnccc24)C3)cn1.O=CO", "Inhibition [%]": 92}
{"compound": "CCC(C)c1ccc(NC(=O)Nc2ccnc3ccccc23)cc1.Cl (stereo not given)", "Inhibition [%]": 98}
{"compound": "O=C(Nc1cc(C(F)(F)F)ccc1Cl)c1ccc(Cn2cc(Br)cn2)cc1", "Inhibition [%]": 91}
{"compound": "O=C1NC(C(=O)Nc2ccccc2)C(c2ccccc2)S1 (stereo not given)", "Inhibition [%]": 95}
{"compound": "Nc1ccc(-c2nc3cc(-c4ccc5[nH]c(-c6ccc(N)cc6)nc5c4)ccc3[nH]2)cc1", "Inhibition [%]": 100}
